- Study system: Notum (Homo sapiens, UniProt Q6P988, C330S)
- Sequence (Q6P988 81-451 C330S): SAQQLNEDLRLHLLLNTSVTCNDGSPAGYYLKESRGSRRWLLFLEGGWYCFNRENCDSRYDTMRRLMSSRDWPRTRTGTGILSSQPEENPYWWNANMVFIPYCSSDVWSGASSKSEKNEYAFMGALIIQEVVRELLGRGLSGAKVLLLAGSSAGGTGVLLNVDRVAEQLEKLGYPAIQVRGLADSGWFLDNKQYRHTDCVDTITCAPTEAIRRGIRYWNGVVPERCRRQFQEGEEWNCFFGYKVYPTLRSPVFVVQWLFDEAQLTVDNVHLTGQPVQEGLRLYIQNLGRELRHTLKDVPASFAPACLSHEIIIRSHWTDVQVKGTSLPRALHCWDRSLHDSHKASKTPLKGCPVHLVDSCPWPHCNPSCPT
- Test parameters: LLE = pIC50 – clogP
Readout type: LLE (lipophilic ligand efficiency)

A = N#Cc1ccc(Cn2cnc3ccccc32)cc1
B = Oc1c(F)cc(F)cc1-c1cc[nH]n1
C = C[C@H]1CCCCN1C(=O)N1CCOCC1
D = Cl.Oc1c(CN2CCOCC2)ccc2ccccc12
Quick one: which order do the items above go in by LLE (lipophilic ligand efficiency), smallest to largest? Field: ranking. Enter the labels in the order requested.
A, C, D, B
(A: 0.7, C: 1.2, D: 1.9, B: 3.6)

====

- Study system: Notum (Homo sapiens, UniProt Q6P988, C330S)
- Test parameters: read-out: Notum IC50; Table S1; mean ± s.d. of N = 2-4 unless stated
Let's look at some compounds and their measured IC50.
The figure you give is taken to be in µM; do not add the unit.

[
  {
    "Compound": "Cc1ccc2[nH]c(NC#N)nc2c1C [15m]",
    "IC50 / µM": 18
  }
]

Notebook: N#CNc1nc2c(Br)cccc2[nH]1 [15d] , IC50 read as 2.3

Notebook: Cc1cccc2c1nc(NC#N)n2C [15k] , IC50 read as 9.3

Notebook: Cn1c(NC#N)nc2ccccc21 [15b] , IC50 read as 5

Notebook: N#CNc1nc2cc(Br)ccc2[nH]1 [15i] , IC50 read as 15

Notebook: N#CNc1nc2cc(Cl)ccc2[nH]1 [15h] , IC50 read as 29

Notebook: COc1cccc2[nH]c(NC#N)nc12 [15f] , IC50 read as 14
